Tested on: MIA PaCa-2
MEASUREMENT PROTOCOL: Antiproliferative activity against human MIA PaCa-2 cells assessed as cell growth inhibition at 10 uM incubated for 48 hrs by MTT assay relative to control
Type: functional
REPORTED METRIC: inhibition at 10 µM
Express your answer as a number followed by its unit.

Consider the worked cases shown below.
MOLECULE: COc1cc(O)c2c(=O)cc(/C=C/c3cccc(Cl)c3F)oc2c1[C@H]1CC[N+](C)([O-])C[C@H]1O (some centres undefined)
DATA VALUE: 52.7%
//
MOLECULE: C[N+]1([O-])CC[C@H](c2c(O)cc(O)c3c(=O)cc(/C=C/c4c(F)cccc4Cl)oc23)[C@H](O)C1 (some centres undefined)
DATA VALUE: 56.1%
//
MOLECULE: C[N+]1([O-])CC[C@H](c2c(O)cc(O)c3c(=O)cc(/C=C/c4ccc(Cl)cc4Br)oc23)[C@H](O)C1 (some centres undefined)
DATA VALUE: 58.4%

Query: Which inhibition at 10 µM value is on record for Cc1cc(=O)c2c(O)cc(O)c([C@H]3CC[N+](C)([O-])C[C@H]3O)c2o1 (some centres undefined) ?
Response: 18.8%
